- SYSTEM TESTED: T1, CD22 protein expressed on the surface of Daudi cells (human, UniProt P20273 20-847)
- T1 construct: whole, on cells; also called human CD22; cell surface CD22
- T1 sequence (looked up): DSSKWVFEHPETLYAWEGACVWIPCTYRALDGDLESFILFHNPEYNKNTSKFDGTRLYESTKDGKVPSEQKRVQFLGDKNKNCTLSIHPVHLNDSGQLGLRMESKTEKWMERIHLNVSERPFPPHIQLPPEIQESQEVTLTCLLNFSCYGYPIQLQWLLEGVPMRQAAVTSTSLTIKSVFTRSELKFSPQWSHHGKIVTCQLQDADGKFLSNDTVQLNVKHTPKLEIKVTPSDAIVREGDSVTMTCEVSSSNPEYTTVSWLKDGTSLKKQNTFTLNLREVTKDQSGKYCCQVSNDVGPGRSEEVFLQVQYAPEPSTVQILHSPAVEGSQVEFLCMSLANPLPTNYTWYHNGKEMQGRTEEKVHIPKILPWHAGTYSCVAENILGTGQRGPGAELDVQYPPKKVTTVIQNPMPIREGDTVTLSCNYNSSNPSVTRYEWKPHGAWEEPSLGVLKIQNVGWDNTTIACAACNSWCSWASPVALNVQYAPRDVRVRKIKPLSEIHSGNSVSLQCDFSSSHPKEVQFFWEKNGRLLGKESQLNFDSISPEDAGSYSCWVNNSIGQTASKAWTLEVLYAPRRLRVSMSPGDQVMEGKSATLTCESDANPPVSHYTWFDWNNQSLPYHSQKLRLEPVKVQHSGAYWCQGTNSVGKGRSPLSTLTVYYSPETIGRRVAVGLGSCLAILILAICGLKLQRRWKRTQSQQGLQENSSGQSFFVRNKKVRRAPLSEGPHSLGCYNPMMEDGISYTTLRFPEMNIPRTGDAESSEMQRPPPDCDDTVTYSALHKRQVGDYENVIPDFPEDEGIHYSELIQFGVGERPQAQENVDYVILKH
- MEASUREMENT NOTES: confocal immunofluorescence, FITC-labelled antibody on Daudi cells
RECORDED METRIC: fold surface binding by relative mean fluorescence (RMF) compared to BA006H

1) VM1003 (antibody, V domains shown, Humanized antibody with human constant region; also called anti-CD22 Mab clone VM1003) VH: EVQLVQSGAEVKKPGATVKISCKVSGYVFTSYWLHWIRQSPSRGLEWLGYINPRNDYTEYNRIFKGRFVFSLDTSVSTAYLQICSLKAEDTAVYYCARRGITTFYWGQG VL: EIVLTQSPATLSLSPGERATLSCKSSQSVLYSAVEKNYLAWYQQKPGQAPRLLIYWASTRERGIPDRFSGSGSGTDFTLTISRLEPEDFAVYYCKQYLSSWTFGQG | ~20 fold
2) VM1010 (antibody, V domains shown, Humanized antibody with human constant region; also called anti-CD22 Mab clone VM1010) VH: EVQLVQSGAEVKKPGESLRISCKVSGYVFTSYWLHWIRQSPSRGLEWLGYINPRNDYTEYNRIFKGRFTISRDNAKNSLYLQMNSLRAEDTAVYYCARRGITTFYWGQG VL: EIVLTQSPATLSLSPGERATLSCKSSQSVLYSAVEKNYLAWYQQKPGKAPKLLIYWASTRERGVPSRFSGSGSGTDFTFTISSLQPEDIATYYCKQYLSSWTFGQG | ~20 fold

Query: So what's the measured fold surface binding by relative mean fluorescence (RMF) compared to BA006H for this one? VM1000 (antibody, V domains shown, Humanized antibody with human constant region; also called anti-CD22 Mab clone VM1000) VH: QVQLVQSGAEVKKPGASVKVSCKASGYVFTSYWLHWIRQSPSRGLEWLGYINPRNDYTEYNRIFKGRLTISKDTSKNQVVLTMTNMDPVDTATYYCARRGITTFYWGQG VL: EIVLTQSPATLSLSPGERATLSCKSSQSVLYSAVEKNYLAWYQQKPGKAPKLLIYWASTRERGVPSRFSGSGSGTDFTFTISSLQPEDIATYYCKQYLSSWTFGQG
Result: ~20 fold
